// data source = the supplement of paper PMC10567573

B1: IRX6 (parent)
chain: YPCLEKPRIWSLAHTATASAVEGA

- Variants of: B1
- test.description: protein stability index of a GFP-peptide fusion (GPS, HEK-293T) (PSI 1-6); higher = more stable;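 also: lentivirally expressed fusions sorted by FACS into six bins by GFP to DsRed ratio, PSI derived from sequencing read proportions per bin multiplied by bin number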
- run.conditions: c terminus: a fixed tail appended
Classification by protein stability index | ranges: I = under 2, II = from 2 up to 3, III = 3 and over

sequence.change	assigned.class
E22K	II
E5V	III
C3Q	II
A16M	III
L4V	II

QUERY: Classify this variant: H14M
RESULT: II

QUERY: Param item: C3K
RESULT: III

QUERY: Param item: A18R
RESULT: III

QUERY: Param item: C3M
RESULT: II

QUERY: Param item: W10P
RESULT: III

QUERY: Param item: I9D
RESULT: III

QUERY: Param item: T17D
RESULT: II
